Just for reference, patent US11730746B2 is where these values come from.

Target: SERCA2a (Canis lupus familiaris, UniProt O46674)
Construct: pre-incubated with 2 μg of microsomes; from tissue; host or cells: dog heart left ventricle, SR microsomes
Sequence (O46674 whole entry): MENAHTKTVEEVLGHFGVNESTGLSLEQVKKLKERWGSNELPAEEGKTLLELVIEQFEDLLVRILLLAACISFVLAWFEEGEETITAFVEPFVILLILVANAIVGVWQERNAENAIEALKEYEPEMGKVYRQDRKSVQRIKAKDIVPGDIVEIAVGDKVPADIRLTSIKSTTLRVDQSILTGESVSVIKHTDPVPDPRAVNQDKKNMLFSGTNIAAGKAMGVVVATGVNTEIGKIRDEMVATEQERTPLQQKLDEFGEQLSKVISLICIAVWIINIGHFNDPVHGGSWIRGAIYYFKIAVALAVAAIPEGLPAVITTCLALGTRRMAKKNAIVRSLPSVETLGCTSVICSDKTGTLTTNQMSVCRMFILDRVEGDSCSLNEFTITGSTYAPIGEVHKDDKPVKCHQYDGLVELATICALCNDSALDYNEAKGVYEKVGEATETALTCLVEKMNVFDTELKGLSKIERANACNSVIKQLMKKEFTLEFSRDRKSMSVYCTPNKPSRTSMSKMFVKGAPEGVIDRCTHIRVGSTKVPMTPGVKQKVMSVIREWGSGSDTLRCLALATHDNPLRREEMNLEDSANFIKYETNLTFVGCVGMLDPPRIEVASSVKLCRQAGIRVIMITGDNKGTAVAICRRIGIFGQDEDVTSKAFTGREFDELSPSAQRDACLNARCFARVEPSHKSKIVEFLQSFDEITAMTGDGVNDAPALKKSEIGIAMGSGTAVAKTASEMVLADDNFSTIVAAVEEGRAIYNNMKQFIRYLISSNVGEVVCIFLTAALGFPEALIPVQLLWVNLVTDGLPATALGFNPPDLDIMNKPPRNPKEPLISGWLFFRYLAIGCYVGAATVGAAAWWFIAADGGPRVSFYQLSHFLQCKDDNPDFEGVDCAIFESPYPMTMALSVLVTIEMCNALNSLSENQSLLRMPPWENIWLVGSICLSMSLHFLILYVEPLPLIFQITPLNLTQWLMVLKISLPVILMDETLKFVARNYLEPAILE
Experiment: SERCA2a ATPase activity in heart-derived SR microsomes from normal dog
Type: biochemical
Details: compound 10 nM; mean ± SD
Property: Vmax (SERCA2a ATPase activity); scope: individual compounds

compound | assayed_target | Vmax (SERCA2a ATPase activity)
C[C@]12CC[C@H](O)C[C@H]1CCC1C2CC[C@]2(C)[C@@H](CCc3cc(CCCN)on3)CC[C@]12O (some centres unmarked) | SERCA2a (Canis lupus familiaris, UniProt O46674) | 2.980 ± 0.441 (n = 4) μmol/min/mg prot
C[C@]12CC[C@H](O)C[C@H]1CCC1C2CC[C@]2(C)[C@@H](c3cn(CCCN)cn3)CC[C@]12O (some centres unmarked) | SERCA2a (Canis lupus familiaris, UniProt O46674) | 2.935 ± 0.403 (n = 3) μmol/min/mg prot
C[C@]12CC[C@H](O)C[C@H]1CCC1C2CC[C@]2(C)[C@@H](c3c[nH]cn3)CC[C@]12O (some centres unmarked) | SERCA2a (Canis lupus familiaris, UniProt O46674) | 2.737 ± 0.336 (n = 7) μmol/min/mg prot
C[C@]12CC[C@H](O)C[C@H]1CCC1C2CC[C@]2(C)[C@@H](CCc3cc(CCN)on3)CC[C@]12O (some centres unmarked) | SERCA2a (Canis lupus familiaris, UniProt O46674) | 2.859 ± 0.504 (n = 4) μmol/min/mg prot
C[C@]12CC[C@H](O)C[C@H]1CCC1C2CC[C@]2(C)[C@@H](/C=C/c3cc(CN)on3)CC[C@]12O (some centres unmarked) | SERCA2a (Canis lupus familiaris, UniProt O46674) | 2.903 ± 0.188 (n = 3) μmol/min/mg prot
